# system-tested: PHD2181-417 (Homo sapiens (Human), UniProt Q9GZT9)
# Sequence (Q9GZT9 181-417): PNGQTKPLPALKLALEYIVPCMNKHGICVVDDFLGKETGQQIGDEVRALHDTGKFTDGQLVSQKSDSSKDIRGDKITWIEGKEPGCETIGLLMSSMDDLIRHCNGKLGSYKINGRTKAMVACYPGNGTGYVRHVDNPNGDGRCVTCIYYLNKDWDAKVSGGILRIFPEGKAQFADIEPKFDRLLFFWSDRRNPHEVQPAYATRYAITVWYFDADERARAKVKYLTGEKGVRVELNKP
# method: PHD enzymatic assay ([14C]-succinic acid production)
# Format: biochemical
# cond: purified PHD2181-417, HIF-1α peptide substrate, 30 min pre-incubation; average of results
endpoint-label: Enzyme pIC50

molecule="O=C(O)c1cnn(-c2nc(NCC3CCCCC3)c3ccc(Oc4ccccc4)cc3n2)c1 [Example 84]" endpoint_label="Enzyme pIC50" result=6.8
molecule="CC(=O)NC1CCN(c2nc(-n3cc(C(=O)O)cn3)nc3ccc(-c4ccccc4)cc23)CC1 [Example 55]" endpoint_label="Enzyme pIC50" result=6.7
molecule="CC(C)(C)Nc1nc(-n2cc(C(=O)O)cn2)nc2ccc(C3CCCCC3)cc12 [Example 36]" endpoint_label="Enzyme pIC50" result=6.8
molecule="CCCCN(CCCC)c1nc(-n2cc(C(=O)O)cn2)nc2cc(Oc3ccccc3)ccc12 [Example 92]" endpoint_label="Enzyme pIC50" result=7.1
molecule="Cc1cccc(C)c1Oc1cc2c(N3CCCC3)nc(-n3cc(C(=O)O)cn3)nc2cc1F [Example 5]" endpoint_label="Enzyme pIC50" result=7.4
molecule="Cc1cccc(C)c1Oc1cc2c(N3CCOCC3)nc(-n3cc(C(=O)O)cn3)nc2cc1F [Example 20]" endpoint_label="Enzyme pIC50" result=7.0
molecule="CN(C)c1nc(-n2cc(C(=O)O)cn2)nc2ccc(C3CCCCC3)cc12 [Example 38]" endpoint_label="Enzyme pIC50" result=7.2
molecule="O=C(O)c1cnn(-c2nc(NCC3CCCCC3)c3cc(-c4ccccc4)ccc3n2)c1 [Example 49]" endpoint_label="Enzyme pIC50" result=6.9
molecule="CS(=O)(=O)Nc1nc(-n2cc(C(=O)O)cn2)nc2ccc(C3CCCCC3)cc12 [Example 40]" endpoint_label="Enzyme pIC50" result=6.6
molecule="O=C(O)c1cnn(-c2nc(NC3CC3)c3cc(OC4CCCCC4)c(F)cc3n2)c1 [Example 105]" endpoint_label="Enzyme pIC50" result=7.2
molecule="CCN(CC)c1nc(-n2cc(C(=O)O)cn2)nc2cc(F)c(OC3CCCCC3)cc12 [Example 102]" endpoint_label="Enzyme pIC50" result=7.5
molecule="CCN(C)c1nc(-n2cc(C(=O)O)cn2)nc2ccc(OC3CCCCC3)cc12 [Example 177]" endpoint_label="Enzyme pIC50" result=7.3
molecule="O=C(O)c1cnn(-c2nc(N3CCOCC3)c3cc(OC4CCCCC4)c(Cl)cc3n2)c1 [Example 136]" endpoint_label="Enzyme pIC50" result=6.7
molecule="O=C(O)c1cnn(-c2nc(N3CCOCC3)c3cc(Cc4ccccc4)ccc3n2)c1 [Example 178]" endpoint_label="Enzyme pIC50" result=6.5
molecule="CCN(CC)c1nc(-n2cc(C(=O)O)cn2)nc2cc(Oc3ccccc3)ccc12 [Example 83]" endpoint_label="Enzyme pIC50" result=7.7
molecule="Cc1cccc(C)c1Oc1cc2c(N3CCC(O)CC3)nc(-n3cc(C(=O)O)cn3)nc2cc1F [Example 19]" endpoint_label="Enzyme pIC50" result=6.9
molecule="CCN(C)c1nc(-n2cc(C(=O)O)cn2)nc2ccc(Cc3ccccc3)cc12 [Example 183]" endpoint_label="Enzyme pIC50" result=7.2
molecule="CN(C)c1nc(-n2cc(C(=O)O)cn2)nc2ccc(OC3CCCCC3)cc12 [Example 173]" endpoint_label="Enzyme pIC50" result=7.4
molecule="O=C(O)c1cnn(-c2nc(NC3CC3)c3cc(Cc4ccccc4)ccc3n2)c1 [Example 182]" endpoint_label="Enzyme pIC50" result=7.1
molecule="N#CC1CCN(c2nc(-n3cc(C(=O)O)cn3)nc3ccc(Oc4ccc(Cl)cc4)cc23)CC1 [Example 65]" endpoint_label="Enzyme pIC50" result=7.4
molecule="CC(C)c1ccc2nc(-n3cc(C(=O)O)cn3)nc(N3CCCC3)c2c1 [Example 187]" endpoint_label="Enzyme pIC50" result=6.8
molecule="CCCNc1nc(-n2cc(C(=O)O)cn2)nc2cc(F)c(Oc3c(C)cccc3C)cc12 [Example 8]" endpoint_label="Enzyme pIC50" result=7.2
molecule="Cc1cccc(C)c1Oc1cc2c(NC3CC3)nc(-n3cc(C(=O)O)cn3)nc2cc1F [Example 14]" endpoint_label="Enzyme pIC50" result=7.1
molecule="O=C(O)c1cnn(-c2nc(N3CCCCC3)c3ccc(Oc4ccccc4)cc3n2)c1 [Example 79]" endpoint_label="Enzyme pIC50" result=7.0
